Test system: HCT-116 colon
Test: NCI tumour cell line growth inhibition, 48 h
MEASURED_PARAMETER: GI50

Exam item: Using the record for "C=CC(=O)N1CC2(CCN(c3nc(OC4CCN(CCCOC)CC4)nc4c(OCC(F)(F)F)c(-c5c(C)ccc6[nH]ncc56)c(C5CC5)cc34)CC2)C1" , state its measured GI50.
Marked response: 1950 nM

Exam item: Using the record for COc1cc(C2=NOC(c3cc(OC)c(OC)c(OC)c3)C2)ccc1OCCCCOc1cc2c(cc1OC)C(=O)N1CCC[C@H]1C=N2 (stereo partly drawn) , state its measured GI50.
Marked response: 216 nM

Further cases:
Exam item: Using the record for "COC(=O)[C@]12CC[C@@H](C)[C@H](C)[C@@H]1C1=CC[C@@H]3[C@@]4(C)C/C(=N\O)[C@H](O)[C@@]5(C)COC(=C45)C[C@@]3(C)[C@]1(C)CC2" , state its measured GI50.
Marked response: 2420 nM

Exam item: Using the record for "Cc1ccc(NC(=O)c2cccc(N(C)C)c2)cc1NC(=O)c1ccc(O)cc1" , state its measured GI50.
Marked response: > 59400 nM

Exam item: Using the record for "N#Cc1ccc(NC(=O)Nc2ccc(Oc3ccc(NC(=O)Nc4ccc(C#N)cc4)cc3)cc2)cc1" , state its measured GI50.
Marked response: 4020 nM

Exam item: Using the record for "O=C1Nc2c(C(F)(F)F)cccc2[C@]1(c1ccc(O)cc1)c1ccc(OC(F)(F)F)cc1" , state its measured GI50.
Marked response: 7730 nM

Exam item: Using the record for "CCCn1cnc2c(SCc3ccccc3Cl)nc(N)nc21" , state its measured GI50.
Marked response: 5200 nM

Exam item: Using the record for "CC/C(=C(/c1ccc(O)cc1)c1ccc(OCCNC)cc1)c1ccccc1" , state its measured GI50.
Marked response: 1680 nM

====

System: MALME-3M melanoma
Test: NCI tumour cell line growth inhibition, 48 h; in the data active means GI50 below about 0.43 µM; inactive means the rest
Please state which outcome applies, choosing from active, inactive

Exam item: // param item: C[C@@H]1OC(O)[C@@H](F)[C@H](O)[C@@H]1O (stereo partly specified) ; yields the recorded call
Marked response: inactive

Further cases:
Exam item: // param item: "O=C1CCCCN1CCCCC#Cc1ccccc1C#Cc1ccc([N+](=O)[O-])cc1" ; yields the recorded call
Marked response: inactive

Exam item: // param item: "CCc1ccc(/C=C\c2cc(OC)c(OC)c(OC)c2)cc1" ; yields the recorded call
Marked response: active

Exam item: // param item: "CCC[CH2][Sn]([CH2]CCC)([O]C(=O)c1cccnc1SC)[O]C(=O)c1cccnc1SC" ; yields the recorded call
Marked response: active

Exam item: // param item: "C=CCCCCCCCCC(=O)[O][Sn]([CH2]CCC)([CH2]CCC)[CH2]CCC" ; yields the recorded call
Marked response: active

Exam item: // param item: "Oc1ccc2ccccc2c1N=Nc1nccs1" ; yields the recorded call
Marked response: inactive

====

Tested on: SNB-75 CNS
Experiment: NCI tumour cell line growth inhibition, 48 h
Some compounds, each annotated with its measured GI50.

Exam item: Using the record for "NC(=O)c1ccc(I)c(N)c1" , state its measured GI50.
Marked response: > 100 µM

Exam item: Using the record for "CC/C(=C(/c1ccc(O)cc1)c1ccc(OCCNC)cc1)c1ccccc1" , state its measured GI50.
Marked response: 1.43 µM

Exam item: Using the record for N#Cc1ccc(O)c(C2=NCC(c3cccc(Oc4ccccc4)c3)O2)c1 (stereo not given) , state its measured GI50.
Marked response: 1.08 µM

Exam item: Using the record for CCOC(=O)[C]1([Bi]([CH3])[CH3])N=NC(C(=O)OC)=C1C(=O)OC (stereo not given) , state its measured GI50.
Marked response: 15.6 µM

Further cases:
Exam item: Using the record for "N#Cc1ccc(NC(=O)Nc2ccc(Oc3ccc(NC(=O)Nc4ccc(C#N)cc4)cc3)cc2)cc1" , state its measured GI50.
Marked response: 4.14 µM

Exam item: Using the record for "O=C(N/N=C/c1ccccc1O)c1ccccc1Nc1ccnc(C(F)(F)F)c1" , state its measured GI50.
Marked response: 2.25 µM

Exam item: Using the record for "O=c1/c(=C/c2ccco2)sc2nc3ccccc3n12" , state its measured GI50.
Marked response: > 10 µM

Exam item: Using the record for "N#Cc1c(-c2ccc(F)cc2)nc(N/N=C/c2c[nH]c3ccccc23)nc1N1CCOCC1" , state its measured GI50.
Marked response: 3.45 µM

Exam item: Using the record for "Cc1ccc(NC(=O)c2cccc(N(C)C)c2)cc1NC(=O)c1ccc(O)cc1" , state its measured GI50.
Marked response: 26.3 µM

Exam item: Using the record for COc1cc(C2NC(=O)c3ccccc3N2)ccc1OCCCCCOc1c(OC)cc(C2=NOC(c3cc(OC)c(OC)c(OC)c3)C2)cc1OC (stereo not given) , state its measured GI50.
Marked response: 19.6 µM

Exam item: Using the record for "FC(F)(F)c1cccc(Nc2nccc(-c3cnn4nc(-c5ccccc5)ccc34)n2)c1" , state its measured GI50.
Marked response: 3.91 µM

Exam item: Using the record for OCC(O)CC[CH2][Sn]([Br])([c]1ccccc1)[c]1ccccc1 (stereo not given) , state its measured GI50.
Marked response: > 100 µM

Exam item: Using the record for "Cn1c2ccccc2c2c(-c3ccccc3)[n+]3ccncc3nc21" , state its measured GI50.
Marked response: > 100 µM

Exam item: Using the record for "Oc1c(CN2CCC(N3CCCCC3)CC2)cc(Cc2cc(CN3CCC(N4CCCCC4)CC3)c(O)c3ncccc23)c2cccnc12" , state its measured GI50.
Marked response: 1.65 µM

Exam item: Using the record for "CN1CCN(C(=O)OCc2nc3c(N4CCOCC4)nc(Cl)nc3n2C)CC1" , state its measured GI50.
Marked response: 1.35 µM

meta.source: PubChem BioAssay (NCI)
